Tested on: NCI-H522 lung
protocol_text: NCI-60 one-dose screen, 48 h (100 = growth as untreated, 0 = no growth, -100 = all killed)
test_parameters: 10 µM unless noted
Method: Growth inhibition of the NCI-H522 human Non-Small Cell Lung tumor cell line is measured as a screen for anti-cancer activity. Cells are grown in 96 well plates and exposed to the test compound for 48 hours. Compounds are tested at a single concentration, which is 10^-5 M for most compounds. The reported endpoint is percent growth (GI% or GIPRCNT), where numbers from 0 - 100% represent growth inhibition, and numbers from -100% - 0 represent cell death. […]
This is part of a sample that, as a whole, favours compounds with a hit. Of some 83,000 tested, about 20% had one in any assay.
Would you mind telling me the reported growth of each entry?
One number for each entry, in %.

[[record]]
smiles_text = "CS(=O)(=O)Nc1cncc(-c2ccc3ncnc(NCc4ccccc4)c3c2)c1"
system_under_test = "NCI-H522 lung"
value_measured = 39.4

[[record]]
smiles_text = "O=C(NN1C(=O)/C(=C/C=C/c2ccc([N+](=O)[O-])o2)SC1=S)c1ccncc1"
system_under_test = "NCI-H522 lung"
value_measured = -83.8

[[record]]
smiles_text = "COc1cc(CNC(=O)C[C@H](C)CCC=C(C)C)ccc1OCc1cn(-c2ccc(Cl)c(Cl)c2)nn1"
system_under_test = "NCI-H522 lung"
value_measured = 61.5

[[record]]
smiles_text = "COc1ccc(N=Nc2c(N)nn3c(-c4ccc([N+](=O)[O-])cc4)ccnc23)cc1"
system_under_test = "NCI-H522 lung"
value_measured = 91.6


input: Please provide the recorded growth for `N#C/C(=C/c1ccc(Cl)cc1)c1nnc(NC(=O)c2ccc(-n3c(=O)[nH]c4ccccc4c3=O)cc2)s1` , tested on NCI-H522 lung.
output: 46.4

---

Tested on: HOP-92 NSCLC
protocol_text: NCI-60 one-dose screen, 48 h (100 = growth as untreated, 0 = no growth, -100 = all killed)
test_parameters: 10 µM unless noted
This is part of a sample that, as a whole, favours compounds with a hit. Of some 83,000 tested, about 20% had one in any assay.
assay_metric: growth (%)
Numbers only, in %.

Some entries whose results are on file:
[[record]]
smiles_text = "Cn1cc(-c2cc(N)n3nc(-c4c[nH]c5ccc(Cl)cc45)cc3n2)c2cc(Br)cnc21"
assay_metric = "growth"
unit_tag = "%"
value_measured = -76.8

[[record]]
smiles_text = "CC1=C(C)C(=O)C(NCCN2CCOCC2)=C(Br)C1=O"
assay_metric = "growth"
unit_tag = "%"
value_measured = 38.7


Respectfully, I request growth for each entry included below.
1. C/C(=N\Nc1ccc(S(N)(=O)=O)cc1)c1cnn(-c2cc(=O)[nH]c3ccc(Br)cc23)c1C
2. Cn1cc(-c2cc3nc(-c4cn(C)c5ncc(Br)cc45)cc(N)n3n2)c2cc(F)ccc21

output:
-2.47
-18.3

Respectfully, I request growth for each entry included below.
1. CN1C(=O)/C(=C\C(=O)c2cc3ccccc3oc2=O)c2ccccc21
2. O=C(NN1C(=O)/C(=C/C=C/c2ccc([N+](=O)[O-])o2)SC1=S)c1ccc([N+](=O)[O-])cc1
3. Cc1nn(-c2ccccc2)c2ncn(CC(=O)N/N=C/c3ccccc3O)c(=O)c12
4. O=C(CSc1nc2ccccc2c(=O)[nH]1)Nc1ccccc1C(=O)O

output:
[64.3, -84.2, 55.8, 118]

input: Looking for the measured growth of `S=C(NCCc1ccccc1)Nc1ccc(OCc2nc3ccc(Cl)cc3[nH]2)cc1` , can you help?
output: 14.4
